Assayed system: MMP9 (Homo sapiens, UniProt P14780)
Sequence (P14780 94-707): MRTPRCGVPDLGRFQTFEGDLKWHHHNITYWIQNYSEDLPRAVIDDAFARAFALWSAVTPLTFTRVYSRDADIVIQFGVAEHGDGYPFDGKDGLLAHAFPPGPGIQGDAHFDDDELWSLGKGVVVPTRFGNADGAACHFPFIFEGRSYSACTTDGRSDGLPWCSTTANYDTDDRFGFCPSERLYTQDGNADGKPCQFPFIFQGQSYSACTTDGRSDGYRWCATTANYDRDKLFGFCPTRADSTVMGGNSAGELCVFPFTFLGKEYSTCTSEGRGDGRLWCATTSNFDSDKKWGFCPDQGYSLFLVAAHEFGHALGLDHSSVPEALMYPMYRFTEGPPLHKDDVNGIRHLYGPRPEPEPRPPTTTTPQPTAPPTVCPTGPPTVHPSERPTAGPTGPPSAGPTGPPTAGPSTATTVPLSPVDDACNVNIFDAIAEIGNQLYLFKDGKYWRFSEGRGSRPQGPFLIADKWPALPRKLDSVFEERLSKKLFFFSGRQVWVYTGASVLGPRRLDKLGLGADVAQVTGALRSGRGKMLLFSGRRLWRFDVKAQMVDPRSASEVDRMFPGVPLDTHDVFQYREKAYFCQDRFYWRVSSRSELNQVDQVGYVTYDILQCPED
Protocol: Inhibition of recombinant human protease MMP9, fluorescence assay
Type: biochemical
Experimental setup: recombinant human MMP9 0.2 μg/mL; substrate 10 μM; room temperature 30 minutes; read-out: IC50 MMP9
Measurement type: pIC50
Give bare numbers, as −log10 of the molar value.

Data request: Endpoint output: pIC50 of Cl.O=C(O)c1ccc2c(n1)CCNC2 [Preparative example 1, hydrochloride] . Value?
Data returned: 2.18

----------
Assayed system: TACE(ADAM17) (Homo sapiens)
Sequence (P78536 215-824): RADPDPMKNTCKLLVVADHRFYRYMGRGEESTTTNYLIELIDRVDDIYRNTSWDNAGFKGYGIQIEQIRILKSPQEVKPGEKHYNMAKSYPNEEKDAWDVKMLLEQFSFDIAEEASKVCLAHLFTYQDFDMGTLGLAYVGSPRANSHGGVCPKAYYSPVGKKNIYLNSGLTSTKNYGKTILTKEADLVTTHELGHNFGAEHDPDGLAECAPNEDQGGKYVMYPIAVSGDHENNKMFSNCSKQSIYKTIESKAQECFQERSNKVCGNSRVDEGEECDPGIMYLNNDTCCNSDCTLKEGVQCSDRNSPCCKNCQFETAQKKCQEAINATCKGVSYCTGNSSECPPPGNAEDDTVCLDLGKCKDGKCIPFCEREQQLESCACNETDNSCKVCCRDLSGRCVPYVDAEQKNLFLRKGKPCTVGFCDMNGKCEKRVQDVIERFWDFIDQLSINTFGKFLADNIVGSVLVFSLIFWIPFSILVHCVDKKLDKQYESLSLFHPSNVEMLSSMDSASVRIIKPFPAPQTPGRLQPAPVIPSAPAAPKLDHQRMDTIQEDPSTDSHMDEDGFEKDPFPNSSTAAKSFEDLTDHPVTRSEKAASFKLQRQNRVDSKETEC
Protocol: Inhibition of recombinant human protease TACE, fluorescence assay
Type: biochemical
Experimental setup: recombinant human TACE 0.2 μg/mL; substrate 20 μM; room temperature 30 minutes; read-out: IC50 TACE(ADAM17)
Measurement type: IC50 (mM)
Answers are plain numbers, in mM.

Data request: Endpoint output: IC50 of Cl.O=C(O)c1ccc2c(n1)CCNC2 [Preparative example 1, hydrochloride] . Value?
Data returned: 5.43

----------
Assayed system: MMP9 (Homo sapiens, UniProt P14780)
Protocol: Inhibition of recombinant human protease MMP9, fluorescence assay
Format: biochemical
Method: The purpose is to determine the inhibitory activity of the compounds of the present disclosure on recombinant human proteases Trypsin, MMP9, and TACE. […] The inhibitory effect of the compounds of the present disclosure on the above three proteases was determined by the above test, and the measured IC50 values were as follows.
Measurement type: IC50

Data request: Endpoint output: IC50 of Cl.O=P(O)(O)c1ccc2c(n1)CCNC2 [Preparative example 2, hydrochloride] . Value?
Data returned: ~25 mM
